Origin of the recorded values: the METLIN SMRT retention time set (Domingo-Almenara et al. 2019)

assay: gradient 5% acetonitrile 3 min, to 50% in 2 min, to 85% in 15 min, held 3 min, 100 µL/min; conditions: column: Zorbax Extend-C18 2.1 x 50 mm; eluents: water / acetonitrile, 0.1% formic acid
Result Type: RP-LC retention time (s)

A = Cc1cc(C)cc(C(=O)N2CCCC(C(=O)NCc3ccco3)C2)c1 (centres undefined)
B = Cn1c(CCNC(=O)c2cn3ccccc3n2)nc2ccccc21
q: Looking at recorded values for RP-LC retention time, does A or B come in lower? Give the label of your selection.
a: B
(B: 556 s, A: 798 s)

P = O=C(NCCN1CCOCC1)C1CCCN(c2nccnc2Sc2ccccc2)C1 (centres undefined)
Q = Cc1nc(-c2cn(C)c3ncccc23)sc1C(=O)Nc1ccccc1Cl
q: Hi, I'm comparing P with Q and wondering which one has the bigger number for RP-LC retention time. Any idea? The response must carry the label of the picked entry.
a: Q

A = CC(=O)N1c2ccc(S(=O)(=O)N3CCCC3)cc2CC1C(=O)NCCN(C)Cc1ccccc1 (centres undefined)
B = Fc1ccc(OCc2nnc3sc(CCCc4ccccc4)nn23)cc1
q: Between item A and item B , which reported RP-LC retention time is smaller? Please identify the chosen entry by its label.
a: A

A = O=C(NCc1ccccc1F)c1cn2cc(Cl)ccc2n1
B = CN(C)S(=O)(=O)c1ccc(-c2nnc(C(=O)NCCN3CCOCC3)o2)cc1
q: Returns the identifier with the smallest measured RP-LC retention time among A and B . Return value: the label identifying the chosen record.
a: A
(A: 723 s, B: 1270 s)

P = CCOC(=O)c1c(C)[nH]c(C(=O)N2CCC(CC(=O)NCc3cccc(Cl)c3)CC2)c1C
Q = O=C1NCCCCCN(C(=O)c2ccc(Cn3ccnc3)o2)[C@H]2CCC[C@@H]12
q: Compare RP-LC retention time: is it lower for P or for Q ? Mark your selection by writing its label.
a: Q
